Reference source for all entries: ChEMBL document CHEMBL1961873

# Lookup of reported inhibition keyed by entry
molecular target: Calcium/calmodulin-dependent protein kinase type IV (Homo sapiens) (UniProt Q16566); conditions: at 1 µM;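 also: each value is the mean of the measured CAMK4 inhibition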
Sequence (Q16566 whole entry): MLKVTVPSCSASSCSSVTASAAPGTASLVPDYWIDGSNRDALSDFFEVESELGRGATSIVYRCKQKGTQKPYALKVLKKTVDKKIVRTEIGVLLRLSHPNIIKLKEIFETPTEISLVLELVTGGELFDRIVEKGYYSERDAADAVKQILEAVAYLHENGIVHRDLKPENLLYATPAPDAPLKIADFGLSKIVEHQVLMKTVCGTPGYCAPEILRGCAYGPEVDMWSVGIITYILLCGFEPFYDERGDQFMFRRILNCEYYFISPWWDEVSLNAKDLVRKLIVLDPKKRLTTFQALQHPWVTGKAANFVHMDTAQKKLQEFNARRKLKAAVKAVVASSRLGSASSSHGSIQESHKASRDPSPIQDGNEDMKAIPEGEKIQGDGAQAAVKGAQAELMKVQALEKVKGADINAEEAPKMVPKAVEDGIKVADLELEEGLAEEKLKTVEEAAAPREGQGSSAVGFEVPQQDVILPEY
PROPERTY MEASURED: inhibition (%)

                                smiles_text                               target_desc  property_measured  recorded_number
0  CCCN1CCC(Oc2cc(Nc3nc(Nc4cccc(F)c4C(N)=O)c4cc[nH]c4n3)c(OC)cc2Cl)CC1  Calcium/calmodulin-dependent protein kinase type IV (Homo sapiens) (UniProt Q16566)         inhibition             31.1
1  NCc1ccc(-c2nc(-c3ccc(Cl)c(O)c3)c(-c3ccncc3)[nH]2)cc1  Calcium/calmodulin-dependent protein kinase type IV (Homo sapiens) (UniProt Q16566)         inhibition             0.53
2             COc1ccc(-c2coc3ncnc(N)c23)cc1  Calcium/calmodulin-dependent protein kinase type IV (Homo sapiens) (UniProt Q16566)         inhibition             1.94
3  CC(=O)Nc1cccc(C#Cc2cncnc2Nc2ccc(OCc3cccc(F)c3)c(Cl)c2)n1  Calcium/calmodulin-dependent protein kinase type IV (Homo sapiens) (UniProt Q16566)         inhibition            -7.03
4   COc1cc(C=NNc2ncnc3c2cnn3-c2ccccc2)ccc1O  Calcium/calmodulin-dependent protein kinase type IV (Homo sapiens) (UniProt Q16566)         inhibition            -1.35
5  Nc1ncnc2occ(-c3ccc(NC(=O)Nc4cccc(C(F)(F)F)c4)cc3)c12  Calcium/calmodulin-dependent protein kinase type IV (Homo sapiens) (UniProt Q16566)         inhibition             4.17
6  COc1cccc(-n2ncc3c(N/N=C/c4cccc(F)c4)ncnc32)c1  Calcium/calmodulin-dependent protein kinase type IV (Homo sapiens) (UniProt Q16566)         inhibition             1.12
7      Nc1nc(-c2ccccn2)c(-c2ccc3ncccc3n2)s1  Calcium/calmodulin-dependent protein kinase type IV (Homo sapiens) (UniProt Q16566)         inhibition            -1.69
8       CCn1c(-c2nonc2N)nc2c(N3CCCC3)nccc21  Calcium/calmodulin-dependent protein kinase type IV (Homo sapiens) (UniProt Q16566)         inhibition            -0.33
9  Nc1nc(-c2ccc3c(c2)C(=Cc2cc(Br)c(O)c(Br)c2)C(=O)N3)cs1  Calcium/calmodulin-dependent protein kinase type IV (Homo sapiens) (UniProt Q16566)         inhibition            -2.75
